Assay procedure: Half life in Sprague-Dawley rat at 100 mg/kg, po measured upto 480 mins by LC-MS/MS analysis
Type: ADME, organism-based
Measurement setup: in vivo
Assay endpoint: half-life

Provide half-life for all items below, preserving their order.
1. COc1cc(OC)c(OC)cc1/C=C/COC(=O)/C=C/c1cc(OC)c(OC)c(OC)c1OC
2. COc1cc(OC)c(OC)cc1/C=C/COC(=O)/C=C/c1c(OC)cc(OC)c(OC)c1OC

1. 57 min
2. 58.5 min

###

Species on record: Homo sapiens
Assay procedure: Inhibition of human LDH5 at 0.5 mM using sodium pyruvate as substrate measured for 60 sec for every 5 mins by LC/MS-MS analysis
Answer each item with its documented inhibition.

Recorded results for 4 molecules are shown here.
Entry smiles	inhibition
COc1cc(OC)c(OC)cc1/C=C/COC(=O)/C=C/c1cc(OC)c(OC)c(OC)c1	13%
COc1ccccc1/C=C/C(=O)OC/C=C/c1cc(OC)c(OC)cc1OC	2%
COc1cc(OC)c(OC)cc1/C=C/COC(=O)/C=C/c1cc(OC)c(OC)c(OC)c1OC	15%
COc1cc(OC)c(OC)cc1/C=C/COC(=O)/C=C/c1c(OC)cc(OC)c(OC)c1OC	27%

Which inhibition value belongs to "COc1cc(OC)c(OC)cc1/C=C/COC(=O)/C=C/c1ccc(F)cc1" ?
5%
